Target: UniProt:Q8TBX8
Assay: Enzyme Binding Assay (KINOMEscan): active site-directed competition binding to an immobilized ligand
Details: 11-point dose response, duplicate, top concentration 5 micromolar; read-out: Pip4k2c Kd: IC50
Protocol: Example B-1: Enzyme Binding Assays (KINOMEscan) PIP4K2C binding constants disclosed herein were determined using the proprietary Human PIP4K2C binding assay (Catalog number 87-0007-1094, Eurofins DiscoverX, San Diego, CA). This assay measures active site-directed competition binding to an immobilized ligand (see https://doi.org/10.1038/nbt1068, herein incorporated by reference in its entirety). […]
pIC50: −log10 of the molar value.
Task for the reader: assign each of the following compounds its reported pIC50.

Exercise: # get_value(readout='pIC50', item= NC(=O)[C@@H]1CCC[C@H](Nc2ncc(F)c(-c3cccc(-n4cc(C(F)(F)F)ccc4=O)c3)n2)C1 [Compound 208] )
Key: > 6.30

Exercise: Need pIC50, item CC(=O)N1CCC(Nc2ncc(Cl)c(-c3cnn(-c4ccc[nH]c4=O)c3)n2)CC1 [Compound 111]
Key: > 6.30

Exercise: Fill blank: measured pIC50 of the compound CC(=O)N1CCC(Nc2ncc(Cl)c(-c3cccc(-c4ccc[nH]c4=O)c3)n2)CC1 [Compound 137] is ____.
Key: > 6.30

Dear colleague, could you please provide pIC50 for the compounds listed below?
1. NC(=O)[C@H]1CC[C@H](Nc2ncc(F)c(-c3cccc(-c4ccccc4)c3)n2)CC1 [Compound 610]
2. CC(=O)N1CCC(Nc2ncc(F)c(-c3cccc(N4CCCCC4=O)c3)n2)CC1 [Compound 221]
3. CC(=O)N1CCC(Nc2ncc(F)c(-c3cccc(C4(O)COC4)c3)n2)CC1 [Compound 171]
4. CC(=O)N1CCC(Nc2ncc(F)c(N3CCCC(n4ccccc4=O)C3)n2)CC1 (centres unmarked) [Compound 189]
5. CC(=O)N1CCC(Nc2ncc(F)c(-c3cccc(C(=O)N4CC[C@@H](O)C4)c3)n2)CC1 [Compound 213]

Key:
1. > 6.30
2. > 6.30
3. > 6.30
4. 5.30 to 6.00
5. > 6.30

Hi! Can you tell me pIC50 for each of these compounds?
1. CNC(=O)[C@H]1CC[C@H](Nc2ncc(Cl)c(-c3cc(C4CC4)[nH]n3)n2)CC1 [Compound 144]
2. NC(=O)[C@H]1CC[C@H](Nc2ncc(F)c(-c3cccc(N4CCOC4=O)c3)n2)CC1 [Compound 245]
3. NC(=O)[C@H]1CCC[C@@H](Nc2ncc(F)c(-c3cccc(-c4ccc(=O)[nH]c4)c3)n2)C1 (racemic) [Compound 201]
4. NC(=O)[C@@H]1CCC[C@H](Nc2ncc(F)c(C3CCCN(c4ccc(F)cc4)C3)n2)C1 (relative stereo) [Compound 91]
5. CC(=O)N1CCC(Nc2ncc(Cl)c(-c3cccc(-c4ccccc4)c3)n2)CC1 [Compound 23]
6. CNC(=O)[C@H]1CC[C@@H](Nc2ncc(Cl)c(-c3cnn(C4CC4)c3)n2)CC1 [Compound 107]

Key:
1: 5.30 to 6.00; 2: > 6.30; 3: > 6.30; 4: > 6.30; 5: > 6.30; 6: 6.00 to 6.30

====

Consider the following compounds; for each one, report its pIC50.
Molecular target: PIP4K2C (Homo sapiens, UniProt Q8TBX8)
Sequence (Q8TBX8 whole entry): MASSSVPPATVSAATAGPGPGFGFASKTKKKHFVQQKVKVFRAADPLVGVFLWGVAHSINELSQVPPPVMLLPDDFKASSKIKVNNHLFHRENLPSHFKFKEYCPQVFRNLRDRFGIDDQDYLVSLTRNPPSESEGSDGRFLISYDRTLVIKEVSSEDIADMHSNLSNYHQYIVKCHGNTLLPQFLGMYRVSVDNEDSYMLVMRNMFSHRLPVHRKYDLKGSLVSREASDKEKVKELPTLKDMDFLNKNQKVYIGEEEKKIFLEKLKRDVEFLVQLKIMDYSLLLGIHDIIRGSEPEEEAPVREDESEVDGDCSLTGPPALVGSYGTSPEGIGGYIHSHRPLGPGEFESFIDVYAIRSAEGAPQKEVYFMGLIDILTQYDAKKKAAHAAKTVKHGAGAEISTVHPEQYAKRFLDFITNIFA
Experiment: Enzyme Binding Assay (KINOMEscan): active site-directed competition binding to an immobilized ligand
Conditions: 11-point dose response, duplicate, top concentration 5 micromolar; read-out: Pip4k2c Kd: IC50
pIC50: −log10 of the molar value.

Exercise: Requested field: pIC50. Item: CC(=O)N1CCC(Nc2ncc(Cl)c(-c3cccc(-c4ccc(F)cc4)n3)n2)CC1
Key: > 6.30

Batch of 3 compounds: report pIC50 for each.
1. CC(=O)N1CCC(Nc2ncc(F)c(N3CCC[C@H](C(=O)N4CC[C@@H](O)C4)C3)n2)CC1
2. CC(=O)N1CCC(Nc2ncc(F)c(-c3cccc(C4COC4)c3)n2)CC1
3. CC(=O)N[C@H]1CC[C@H](Nc2ncc(F)c(N3CCC[C@H](C(=O)NC4CC4)C3)n2)CC1

Key:
1. 6.00 to 6.30
2. > 6.30
3. 5.30 to 6.00

====

Molecular target: PIP4K2C (Homo sapiens)
Experiment: HiBiT PIP4K2C degradation assay in MOLT-4 cells (endogenous PIP4K2C C-terminally tagged with HiBiT)
Format: cell-based
Design: untagged in primary human PBMCs and monocyte-derived dendritic cells
Details: 6 hours of incubation time, rather than 24 hours; MOLT-4, top concentration 10 micromolar; read-out: HiBIT-degradation MOLT4 PIP4k2C DC50 (6 hours, marked *)
measured parameter: DC50

Exercise: Endpoint output: DC50 of O=C1CC[C@H](Nc2ccc(N3CCN(C[C@H]4CC[C@H](CNC(=O)[C@H]5CC[C@H](Nc6ncc(F)c(-c7cccc(-n8ccccc8=O)c7)n6)CC5)CC4)CC3)c(F)c2)C(=O)N1 (single isomer, unassigned) . Value?
Key: < 500 nM

Exercise: Please report the recorded DC50 for O=C1CCC(Nc2ccc(C3CCN([C@H]4CC[C@H](NC(=O)[C@H]5CC[C@H](Nc6ncc(F)c(-c7cccc(-c8ccccc8)c7)n6)CC5)CC4)CC3)c(F)c2)C(=O)N1 (stereo partly shown) .
Key: < 500 nM

Exercise: # DC50 lookup, item O=C1CCC(Nc2ccc(N3CCC(N4CCC(C(=O)N[C@H]5CC[C@H](Nc6ncc(F)c(-c7cccc(-c8ccccc8)c7)n6)CC5)CC4)CC3)c(F)c2)C(=O)N1 (stereo partly shown)
Key: < 500 nM

Exercise: Item under review: O=C1CCC(Nc2ccc(C3CCN(CC4CCN(C(=O)[C@H]5CC[C@H](Nc6ncc(F)c(-c7cccc(-c8ccccc8)c7)n6)CC5)CC4)CC3)c(F)c2)C(=O)N1 (stereo partly shown) . Reported DC50?
Key: < 500 nM

Please give DC50 for each item listed below.
1. O=C1CCC(Nc2ccc(C3CCN(CC4(O)CCN(C(=O)[C@H]5CC[C@H](Nc6ncc(F)c(-c7cccc(N8CCOCC8)c7)n6)CC5)CC4)CC3)c(F)c2)C(=O)N1 (stereo partly shown)
2. O=C1CCC(Nc2ccc(C3CCN(CC4CCN(C(=O)[C@H]5CC[C@H](Nc6ncc(F)c(-c7cccc(N8CCCCC8)c7)n6)CC5)CC4)CC3)c(F)c2)C(=O)N1 (stereo partly shown)

Key:
< 500 nM
< 500 nM

# map each compound to its DC50
1. O=C1CCC(Nc2ccc(N3CCN([C@H]4CC[C@H](CC(=O)N5CCC(Nc6ncc(F)c(-c7cccc(-n8ccccc8=O)c7)n6)CC5)CC4)CC3)c(F)c2)C(=O)N1 (stereo partly shown)
2. O=C1CCC(Nc2ccc(N3CCC(N4CCC(C(=O)N[C@H]5CC[C@H](Nc6ncc(F)c(-c7cccc(N8CCCCC8)c7)n6)CC5)CC4)CC3)c(F)c2)C(=O)N1 (stereo partly shown)
3. Cc1ccn(-c2cccc(-c3nc(N[C@H]4CC[C@H](C(=O)N5CCC(CN6CCC(c7ccc(NC8CCC(=O)NC8=O)cc7F)CC6)CC5)CC4)ncc3F)c2)c(=O)c1 (stereo partly shown)
4. Cn1nc([C@H]2CCC(=O)NC2=O)c2ccc(C3CCN(CC4CCN(C(=O)[C@H]5CC[C@H](Nc6ncc(F)c(-c7cccc(-n8ccccc8=O)c7)n6)CC5)CC4)CC3)cc21 (single isomer, unassigned)

Key:
["> 5000 nM", "< 500 nM", "< 500 nM", "< 500 nM"]

====

Biological target: PIP4K2C (Homo sapiens)
Assay: Enzyme Binding Assay (KINOMEscan): active site-directed competition binding to an immobilized ligand
Details: 11-point dose response, duplicate, top concentration 5 micromolar; read-out: Pip4k2c Kd: IC50
pIC50: −log10 of the molar value.
measured parameter: pIC50

Please review the entries below; each comes with its answer.
Exercise: Quick one: pIC50 for CC(=O)N[C@H]1CC[C@H](Nc2ncc(Cl)c(-c3cccc(-c4ccccc4)c3)n2)CC1 ?
Key: > 6.30

Exercise: For CC(=O)N[C@H]1CC[C@H](Nc2ncc(Cl)c(-c3ccc(=O)n(C4CC4)c3)n2)CC1 , what is its reported pIC50?
Key: 6.00 to 6.30

Exercise: Find the recorded pIC50 belonging to NC(=O)[C@H]1CC[C@H](Nc2ncc(F)c(-c3cccc(N4CCCOC4=O)n3)n2)CC1 and report it.
Key: > 6.30

Exercise: Requested read-out: pIC50. Entry: CC(=O)N1CCC(Nc2ncc(F)c(-c3cccc(-n4ccccc4=O)c3)n2)CC1
Key: > 6.30

Exercise: Could you tell me which pIC50 is on file for CC(=O)N1CCC(Nc2ncc(F)c(N3CCOCC3)n2)CC1 ?
Key: 6.00 to 6.30

Provide reported pIC50 for each item, in the same order as listed.
1. CC(=O)N1CCC(Nc2ncc(F)c(-c3cccc(N4CCOCC4=O)n3)n2)CC1
2. NC(=O)[C@@H]1CCC[C@H](Nc2ncc(Cl)c(-c3cccc(-n4ccc(F)cc4=O)c3)n2)C1 (racemic)
3. CNC(=O)[C@H]1C[C@@H](Nc2ncc(Cl)c(-c3cnn(C4CC4)c3)n2)C1

Key:
["> 6.30", "> 6.30", "> 6.30"]
